# maps each entry to its RP-LC retention time
Test: gradient 5% acetonitrile 3 min, to 50% in 2 min, to 85% in 15 min, held 3 min, 100 µL/min
Details: column: Zorbax Extend-C18 2.1 x 50 mm; eluents: water / acetonitrile, 0.1% formic acid
Answer by giving the amount and then stating its unit.

{"compound": "COCCn1c(C2CCN(C(=O)c3cc(Cl)ccc3OC)C2)nc2ccncc21 (stereo not drawn)", "result": "561 s"}
{"compound": "Cc1nc(-c2cccc(F)c2)sc1C(=O)NC1CC1", "result": "827 s"}
{"compound": "CCCN1CCN(C(=O)C2=NN(c3ccc(C)cc3)c3ncccc3S2(=O)=O)CC1", "result": "643 s"}
{"compound": "Cc1ccc(Cn2c(N3CCCC(C(=O)NCCC4=CCCCC4)C3)nc3ccsc3c2=O)cc1 (stereo not drawn)", "result": "1150 s"}
{"compound": "CCOc1ccc(NC(=O)Cn2ncc3c(N4CCN(c5ccccn5)CC4)ncnc32)cc1", "result": "624 s"}
{"compound": "O=C(c1ccsc1)N1CC(c2nc(CCOCC3CCOCC3)no2)C1", "result": "696 s"}
{"compound": "CN(C)C(=O)CSc1nnc(-c2ccc3c(c2)OCCCO3)n1C1CC1", "result": "676 s"}
{"compound": "CCN(CC)C(=O)c1ccc2c(c1)nnn2CCNC(=O)Nc1ccc2c(c1)CCC2", "result": "764 s"}
{"compound": "O=C(NCCn1c(=O)n(Cc2ccc(F)cc2)c2cccnc21)c1nccc2ccccc12", "result": "840 s"}
{"compound": "CN(C)[C@@H]1CN(C(=O)c2cc3cc(Cl)ccc3[nH]2)C[C@H]1CO", "result": "622 s"}

CC(CCc1ccccc1)NC(=O)Cc1csc2nc(-c3ccccc3)cn12 (stereo not drawn) has a reported RP-LC retention time of 850 s

Cc1cccc(-c2csc3c(=O)n(CC(=O)OC(C)(C)C)cnc23)c1 has a reported RP-LC retention time of 1070 s

O=C(c1ccc(F)c(F)c1)N1CCN(c2nc(CN3CCCC3)cs2)CC1 has a reported RP-LC retention time of 635 s

Cc1nn(-c2nc(-c3ccc(Cl)cc3)cs2)c(C)c1CC(=O)N1CCc2ccccc2C1 has a reported RP-LC retention time of 1330 s

Cc1noc(C)c1CC(=O)N1C[C@H]2C[C@H](C1)[C@H]1CCCC(=O)N1C2 has a reported RP-LC retention time of 599 s

CCCN(CC(=O)N(Cc1ccco1)CC1CCCO1)C(=O)c1ccccc1OC (stereo not drawn) has a reported RP-LC retention time of 870 s

Cc1ccccc1CNC(=O)C1CCCN1S(=O)(=O)c1cc2c(cc1Cl)NC(=O)CO2 (stereo not drawn) has a reported RP-LC retention time of 786 s

COc1ccc(NC(=O)Cn2c(C)cc(-c3nnc(C4CCC4)o3)c2C)cc1F has a reported RP-LC retention time of 697 s

CCOC(=O)C1CCN(C(=O)c2cn(-c3cc(N4CCSCC4)ncn3)cn2)CC1 has a reported RP-LC retention time of 791 s

COc1ccc(-c2nc(CN3CCCC3=O)no2)cc1 has a reported RP-LC retention time of 735 s

---

Experiment: gradient 5% acetonitrile 3 min, to 50% in 2 min, to 85% in 15 min, held 3 min, 100 µL/min
Conditions: column: Zorbax Extend-C18 2.1 x 50 mm; eluents: water / acetonitrile, 0.1% formic acid
Rule: RP-LC retention time of 700 s or more gives Met; anything lower gives Not met.

Solved entries (count: 4):
{"molecule": "Cc1cccc2c(C(=O)NC3CC3)cc(N3CCCC3)nc12", "class_name": "Not met"}
{"molecule": "CCOc1ccccc1-n1ccn(Cc2nc(-c3ccc(OC)cc3)no2)c(=O)c1=O", "class_name": "Met"}
{"molecule": "CN(C)c1nn(CC(=O)Nc2ccc(Br)cc2)c(=O)c2ccccc12", "class_name": "Met"}
{"molecule": "CCOC(=O)c1cc(S(=O)(=O)N2CCCC2C(=O)NC(C)C)cn1C (stereo not given)", "class_name": "Met"}

Kindly consider the entry below.
Textbook exercise: given the entry O=C(NCc1ccccc1Cl)C(=O)NCC(c1ccc2c(c1)OCO2)N1CCOCC1 (stereo not given) , state whether its RP-LC retention time is greater than or equal to 700 s.
Not met
